B1: glmS ribozyme (parent)
chain: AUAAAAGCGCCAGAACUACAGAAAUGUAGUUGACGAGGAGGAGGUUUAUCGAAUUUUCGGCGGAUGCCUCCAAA

Variants of: B1
Assay Procedure: kcat; higher = faster cleavage; RNA array
Assay Conditions: with glucosamine-6-phosphate
This sample holds only a part of the variants without activity.
Quantity Kind: kcat

May I ask what kcat has been recorded for C11U U31C ?
0.000563 s⁻¹

Entry to check: U30A A52U
0.000132 s⁻¹

Next variant up: A6G A14G
0.00132 s⁻¹

# repeat for C16G G29U U54A
0.024 s⁻¹

Similarly, A14U U45G C68U ?
0.000104 s⁻¹

Proceed to A14C G32U
0.0014 s⁻¹

Then what about the variant G40C A53C ?
0.000789 s⁻¹

Similarly, A39C U46C ?
0.00261 s⁻¹

Subsequent entry: U31A G40C
0.00121 s⁻¹

Please do the same for A15C U47A as well.
0.00412 s⁻¹

And then G29U G41C , what is it?
4.75e-05 s⁻¹

How about this variant: G44U C67U
0.00551 s⁻¹

Same read-out for C10U U56A ?
2.68e-05 s⁻¹

Also, C50U C68A please.
3.06e-05 s⁻¹

Also check C58U C61A
6.3e-05 s⁻¹

Same lookup for G37A G41C , please.
2.41e-05 s⁻¹

Could you do the same for G44U , please?
0.000429 s⁻¹

Now consider U45C U49C G66U .
< 1e-05 s⁻¹

Repeat for the following variant: G32A C67G
0.000177 s⁻¹

Also, G40C C70A please.
0.000174 s⁻¹

Further, for G13U G63U ?
< 1e-05 s⁻¹

How about G32U A42G ?
0.00137 s⁻¹

Please answer likewise for U30C G66A
0.000173 s⁻¹

Same question, A36G C70G this time
1.29e-05 s⁻¹

Also check U45A A53G
0.0342 s⁻¹

Same question, A15G G43A this time
8.91e-05 s⁻¹

Queued: C11A U49A
< 1e-05 s⁻¹

Similarly, C11U C70A ?
5.41e-05 s⁻¹

Lookup C50U G59A
< 1e-05 s⁻¹

Now the variant U47C U54A
0.00447 s⁻¹

Repeat for the following variant: A53G U56A
0.0133 s⁻¹

Next: A15C A48U
5.55e-05 s⁻¹

Ok, now G7A U45C
< 1e-05 s⁻¹

Same question, G40C G66A this time
0.00247 s⁻¹

Field entry: U47G A64U
2.76e-05 s⁻¹

Queued: G29U A52U
0.000123 s⁻¹

Repeat for the following variant: U30A U65C
0.000105 s⁻¹
